In this section, each of the molecules is paired with its reported Barnyardgrass plant response rating.
# System: barnyardgrass
# test: Test C postemergence
# Format: in vivo, Echinochloa crus-galli
# experimental-context: postemergence, 62 g ai/ha; scale 0 to 100
metric-name: Barnyardgrass plant response rating

[
  {
    "structure": "CCCc1cc(C(=O)NCC)nn1Cc1cc(C(F)(F)F)nn1C",
    "metric-name": "Barnyardgrass plant response rating",
    "observed-value": 10
  },
  {
    "structure": "CCOc1cc(C(=O)NCC(F)(F)F)nn1Cc1ccnc(C(F)(F)F)c1",
    "metric-name": "Barnyardgrass plant response rating",
    "observed-value": 5
  },
  {
    "structure": "CCc1cc(C(=O)NC(C)C)nn1Cc1ccnc(C(F)(F)F)c1",
    "metric-name": "Barnyardgrass plant response rating",
    "observed-value": 10
  },
  {
    "structure": "CCNC(=O)c1cc(CC)n(Cc2ccnc(C(F)(F)F)c2)n1",
    "metric-name": "Barnyardgrass plant response rating",
    "observed-value": 5
  },
  {
    "structure": "CCCNC(=O)c1cc(CCC)n(Cc2cc(C(F)(F)F)nn2C)n1",
    "metric-name": "Barnyardgrass plant response rating",
    "observed-value": 15
  },
  {
    "structure": "CCc1cc(C(=O)NC2CC2)nn1Cc1ccnc(OCC(F)(F)F)c1",
    "metric-name": "Barnyardgrass plant response rating",
    "observed-value": 5
  },
  {
    "structure": "CCCc1cc(C(=O)NCC(F)(F)F)nn1Cc1cc(C(F)(F)F)nn1C",
    "metric-name": "Barnyardgrass plant response rating",
    "observed-value": 25
  },
  {
    "structure": "CCc1cc(C(=O)NCC(F)(F)F)nn1Cc1ccnc(C(F)(F)F)c1",
    "metric-name": "Barnyardgrass plant response rating",
    "observed-value": 15
  },
  {
    "structure": "CCCc1cc(C(=O)NOCC)nn1Cc1ccnc(C(F)(F)F)c1",
    "metric-name": "Barnyardgrass plant response rating",
    "observed-value": 0
  },
  {
    "structure": "CCOc1cc(C(=O)NC2CC2)nn1Cc1ccnc(OC(F)F)c1",
    "metric-name": "Barnyardgrass plant response rating",
    "observed-value": 5
  },
  {
    "structure": "CCc1cc(C(=O)NOC(C)C)nn1Cc1ccnc(C(F)(F)F)c1",
    "metric-name": "Barnyardgrass plant response rating",
    "observed-value": 5
  }
]
